- Test system: HCV genotype 1b (Con1) replicon in HUH-7 cells
- Procedure text: HCV replicon luciferase reporter assay, genotype 1b
- Assay type: cell-based
- Measurement context: Hepatitis C virus, 72 h, genotype 1b replicon, 3 days incubation, read-out: LE_1b (EC50)
Observed property: pEC50
Convention used: pEC50 is expressed as -log10 of the molar concentration.

(Q) Entry COC[C@@H]1C[C@H](C)CC/C=C\[C@@H]2C[C@@]2(C(=O)NS(=O)(=O)C2(C)CC2)NC(=O)[C@@H]2C[C@@H](Oc3ncc(OC)c4ccccc34)CN2C(=O)[C@H]1NC(=O)OC(C)(C)C(F)(F)F [Compound 1016] : reported pEC50 = ?
(A) 9.59

(Q) Can you share its pEC50? I mean this compound: CCOc1cnc(O[C@@H]2C[C@H]3C(=O)N[C@]4(C(=O)NS(=O)(=O)C5(C)CC5)C[C@H]4/C=C\CC[C@H](C)C[C@@H](COC)[C@H](NC(=O)OC(C)(C)C(C)(F)F)C(=O)N3C2)c2ccc(OC)cc12 [Compound 1067]
(A) 9.30

(Q) Dear colleague, I am looking for the recorded pEC50 of the following compound: COC[C@@H]1C[C@H](C)CC/C=C\[C@@H]2C[C@@]2(C(=O)NS(=O)(=O)C2(CF)CC2)NC(=O)[C@@H]2C[C@@H](Oc3nc4cc(OC)ccc4nc3C(C)C)CN2C(=O)[C@H]1NC(=O)OC(C)(C)C [Compound 1025]
(A) 8.86

(Q) Any idea what pEC50 was measured for COC[C@@H]1C[C@@H](C)CC/C=C\[C@@H]2C[C@@]2(C(=O)NS(=O)(=O)C2(CF)CC2)NC(=O)[C@@H]2C[C@@H](Oc3nc4cc(OC)ccc4nc3C(F)(F)F)CN2C(=O)[C@H]1NC(=O)OC(C)(C)C(F)(F)F [Compound 1038] ?
(A) 7.83

More entries:
(Q) Requested read-out: pEC50. Entry: COC[C@@H]1C[C@H](C)CC/C=C\[C@@H]2C[C@@]2(C(=O)NS(=O)(=O)C2CC2)NC(=O)[C@@H]2C[C@@H](Oc3nc4cc(OC)ccc4nc3C(F)(F)F)CN2C(=O)[C@H]1NC(=O)OC(C)(C)C(F)(F)F [Compound 1041]
(A) 9.12

(Q) Give the measured pEC50 of COC[C@@H]1C[C@H](C)CC/C=C\[C@@H]2C[C@@]2(C(=O)NS(=O)(=O)C2(C)CC2)NC(=O)[C@@H]2C[C@@H](Oc3nc4cc(OC)c(F)cc4nc3C(F)(F)F)CN2C(=O)[C@H]1NC(=O)OC(C)(C)C(F)(F)F [Compound 1048] .
(A) 9.57

(Q) Any idea what pEC50 was measured for COC[C@@H]1C[C@@H](C)CC/C=C\[C@@H]2C[C@@]2(C(=O)NS(=O)(=O)C2(C)CC2)NC(=O)[C@@H]2C[C@@H](Oc3nc4cc(OC)ccc4nc3C(C)C)CN2C(=O)[C@H]1NC(=O)OC(C)(C)C [Compound 1029] ?
(A) 9.20
